Reported values of koff for individual entries
Target: biotinylated soluble HLA-A2/WT1_(126) (…) complex (Homo sapiens, HLA-A*02:01, biotin (the complex is biotinylated; site not stated))
Experiment: SPR

binder	koff [s⁻¹]
Q2L scFv (scFv, V domains shown) VH: EVQLLESGGGLVQPGGSLRLSCAASGFTFSSYAMSWVRQAPGKGLEWVSLIDPWGQETLYADSVKGRFTISRDNSKNTLYLQMNSLRAEDTAVYYCAKLTGRFDYWGQGTLVTVSS VL: DIQMTQSPSSLSASVGDRVTITCRASQSISSYLNWYQQKPGKAPKLLIYSASLLQSGVPSRFSGSGSGTDFTLTISSLQPEDFATYYCQQGPGTPNTFGQGTKVEIK	0.000355
S3.6 scFv (scFv, V domains shown) VH: EVQLLESGGGLVQPGGSLRLSCAASGFTFSSYAMSWVRQAPGKGLEWVSLIDPWGQETLYADSVKGRFTISRDNSKNTLYLQMNSLRAEDTAVYYCAKLTGRFDYWGQGTLVTVSS VL: DIQMTQSPSSLSASVGDRVTITCRASQSISNYLNWYQQKPGKAPKLLIYSASQLQSGVPSRFSGSGSGTVFTLTISSLQPEDFATYYCQQGPGTPNTFGQGTKVEIK	0.00177
S3.1 scFv (scFv, V domains shown) VH: EVQLLESGGGLVQPGGSLRLSCAASGFTFSSYAMSWVRQAPGKGLEWVSLIDPWGQETLYADSVKGRFTISRDNSKNTLYLQMNSLGAEDTAVYYCAKLTGRFDYWGQGTLVTVSS VL: DIQMTQSPSSLSASVGDRVTITCRASQSISSYLNWYQQKPGKAPKLLIYSASQLQSGVPSRFSGSGSGTDFTLTISNLQPEDFATYYCQQGPGTPNTFGQGTKVEIK	0.00191
Q2L scFv-Fc (Fc fusion) VH: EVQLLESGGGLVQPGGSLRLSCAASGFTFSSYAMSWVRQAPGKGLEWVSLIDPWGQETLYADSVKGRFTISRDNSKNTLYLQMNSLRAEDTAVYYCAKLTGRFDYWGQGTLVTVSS VL: DIQMTQSPSSLSASVGDRVTITCRASQSISSYLNWYQQKPGKAPKLLIYSASLLQSGVPSRFSGSGSGTDFTLTISSLQPEDFATYYCQQGPGTPNTFGQGTKVEIK	1.15e-06
